Items are presented alongside their recorded Remaining (T = 60 min).
experimental-details: Liver Microsome stability (In Vitro Metabolism)
Assay type: in vitro ADME
protocol-conditions: Mouse liver microsomes

compound	Remaining (T = 60 min) (%)
CC1C=CC=CC=CC=CC=CC=CC=CC(OC2OC(C)C(O)C(N)C2O)CC2OC(O)(CC(O)CC(O)C(O)CCC(O)CC(O)CC(=O)OC(C)C(C)C1O)CC(O)C2C(=O)NCCO (stereo not drawn) [Compound BA]	97.7
C[C@@H]1[C@H](O)[C@@H](C)/C=C/C=C/C=C/C=C/C=C/C=C/C=C/[C@H](OC2O[C@H](C)[C@@H](O)[C@H](N)[C@@H]2O)C[C@@H]2O[C@](O)(C[C@@H](O)C[C@@H](O)[C@H](O)CC[C@@H](O)C[C@@H](O)CC(=O)O[C@H]1C)C[C@H](O)[C@H]2C(=O)O (stereo partly drawn) [AmB, Amphotericin B]	106
CC1C=CC=CC=CC=CC=CC=CC=CC(OC2OC(C)C(O)C(N)C2O)CC2OC(O)(CC(O)CC(O)C(O)CCC(O)CC(O)CC(=O)OC(C)C(C)C1O)CC(O)C2C(=O)NCCO (stereo not drawn) [Compound AA]	118

###

target-entity: CYP3A4 (Homo sapiens, UniProt P08684)
Sequence (P08684 whole entry): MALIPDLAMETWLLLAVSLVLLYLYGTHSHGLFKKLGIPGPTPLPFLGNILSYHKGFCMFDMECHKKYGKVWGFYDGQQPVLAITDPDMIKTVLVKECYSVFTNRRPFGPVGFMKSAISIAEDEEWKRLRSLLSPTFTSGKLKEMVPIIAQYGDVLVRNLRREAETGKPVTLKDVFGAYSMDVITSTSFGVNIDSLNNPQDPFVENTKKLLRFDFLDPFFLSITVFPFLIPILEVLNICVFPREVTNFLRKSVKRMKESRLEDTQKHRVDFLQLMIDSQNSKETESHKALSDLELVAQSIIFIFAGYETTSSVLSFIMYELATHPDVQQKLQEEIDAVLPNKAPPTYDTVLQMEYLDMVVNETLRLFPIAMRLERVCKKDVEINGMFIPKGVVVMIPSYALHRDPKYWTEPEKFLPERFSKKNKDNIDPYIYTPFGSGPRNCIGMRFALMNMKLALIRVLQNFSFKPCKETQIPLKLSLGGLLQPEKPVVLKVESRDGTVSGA
experimental-details: CYP Inhibition
protocol-conditions: human, human liver microsomes, probe 5 in 1 substrate cocktail (substrates not named)

compound	inhibition at 10 min, 10 µM [%]
C[C@@H]1[C@H](O)[C@@H](C)/C=C/C=C/C=C/C=C/C=C/C=C/C=C/[C@H](OC2O[C@H](C)[C@@H](O)[C@H](N)[C@@H]2O)C[C@@H]2O[C@](O)(C[C@@H](O)C[C@@H](O)[C@H](O)CC[C@@H](O)C[C@@H](O)CC(=O)O[C@H]1C)C[C@H](O)[C@H]2C(=O)O (stereo partly shown)	8.1

###

experimental-details: Liver Microsome stability (In Vitro Metabolism)
Format: in vitro ADME
protocol-conditions: Dog liver microsomes
quantity: CLint scaled at 1 µM

compound	quantity	observed-result
C[C@@H]1[C@H](O)[C@@H](C)/C=C/C=C/C=C/C=C/C=C/C=C/C=C/[C@H](OC2O[C@H](C)[C@@H](O)[C@H](N)[C@@H]2O)C[C@@H]2O[C@](O)(C[C@@H](O)C[C@@H](O)[C@H](O)CC[C@@H](O)C[C@@H](O)CC(=O)O[C@H]1C)C[C@H](O)[C@H]2C(=O)O (stereo partly shown)	CLint scaled at 1 µM	< 14 mL/min/kg

###

Each record here notes measured Remaining (T = NCF60 min).
experimental-details: Liver Microsome stability (In Vitro Metabolism)
Type: in vitro ADME
protocol-conditions: Dog liver microsomes, no cofactor 60 min
quantity: Remaining (T = NCF60 min) (%)

molecule	quantity	observed-result
CC1C=CC=CC=CC=CC=CC=CC=CC(OC2OC(C)C(O)C(N)C2O)CC2OC(O)(CC(O)CC(O)C(O)CCC(O)CC(O)CC(=O)OC(C)C(C)C1O)CC(O)C2C(=O)NCCN (centres unmarked) [AM]	Remaining (T = NCF60 min)	109
CNC(=O)C1C(O)CC2(O)CC(O)CC(O)C(O)CCC(O)CC(O)CC(=O)OC(C)C(C)C(O)C(C)C=CC=CC=CC=CC=CC=CC=CC(OC3OC(C)C(O)C(N)C3O)CC1O2 (centres unmarked) [AN]	Remaining (T = NCF60 min)	113
CC1C=CC=CC=CC=CC=CC=CC=CC(OC2OC(C)C(O)C(N)C2O)CC2OC(O)(CC(O)CC(O)C(O)CCC(O)CC(O)CC(=O)OC(C)C(C)C1O)CC(O)C2C(=O)NCCO (centres unmarked) [Compound AA]	Remaining (T = NCF60 min)	97.4
C[C@@H]1[C@H](O)[C@@H](C)/C=C/C=C/C=C/C=C/C=C/C=C/C=C/[C@H](OC2O[C@H](C)[C@@H](O)[C@H](N)[C@@H]2O)C[C@@H]2O[C@](O)(C[C@@H](O)C[C@@H](O)[C@H](O)CC[C@@H](O)C[C@@H](O)CC(=O)O[C@H]1C)C[C@H](O)[C@H]2C(=O)O (some centres unmarked) [AmB, Amphotericin B]	Remaining (T = NCF60 min)	94.7
COC(=O)C(Cc1c[nH]cn1)NC(=O)C1C(O)CC2(O)CC(O)CC(O)C(O)CCC(O)CC(O)CC(=O)OC(C)C(C)C(O)C(C)C=CC=CC=CC=CC=CC=CC=CC(OC3OC(C)C(O)C(N)C3O)CC1O2 (centres unmarked) [AL]	Remaining (T = NCF60 min)	87.1
